# Procedure details: qHTS assay for small molecule activators of the heat shock response signaling pathway - cell viability counter screen (AID 743209); also: nearly all actives have a fitted effect of over 50% in size
# Conditions used: HSE-bla HeLa viability, CellTiter-Glo luminescence, 5 h; series mostly up to 62.6 µM
Inconclusive results are not listed. Activity calls are given as the source filed them. Calls follow the shape of the dose curve; as a rule, active = well fitted cell-killing curve with a large enough effect in the repeat runs; inconclusive = weak or mixed curves, or effect the other way; inactive = no such curve, though single readings can be large or run the other way.
Reported metric: activity change, negative = cytotoxicity

Consider the worked cases shown below.
CC(C)Cc1ccc(C(C)C(=O)OCc2ccccn2)cc1 (stereo unspecified): inactive
NCC(=O)O: inactive
c1ccc(-c2ccccn2)nc1: inactive
O[C@@H](COc1cccc2ncccc12)CN1CCN(C2c3ccccc3[C@@H]3[C@H](c4ccccc42)C3(F)F)CC1 (stereo partly specified): inactive
C[Si](C)(CCCN)O[Si](C)(C)CCCN: inactive

input: What does the data say about its activity change, negative = cytotoxicity? Entry: CCCNCC(O)COc1ccccc1C(=O)CCc1ccccc1 (stereo unspecified)
output: inactive
